Catalogue of molecules with associated inhibition
- Target Under Test: UniProt P0DMS8
- Sequence (P0DMS8 whole entry): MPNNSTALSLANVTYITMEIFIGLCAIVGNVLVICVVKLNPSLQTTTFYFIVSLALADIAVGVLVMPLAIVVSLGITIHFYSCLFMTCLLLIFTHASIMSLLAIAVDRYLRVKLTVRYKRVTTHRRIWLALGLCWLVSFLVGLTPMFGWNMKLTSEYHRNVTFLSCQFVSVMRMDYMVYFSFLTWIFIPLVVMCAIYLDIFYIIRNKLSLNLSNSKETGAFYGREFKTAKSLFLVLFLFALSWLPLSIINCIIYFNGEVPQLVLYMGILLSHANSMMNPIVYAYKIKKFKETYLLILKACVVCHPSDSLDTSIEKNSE
- Measurement Notes: Displacement of [3H]-MRE-3008-F20 from human adenosine A3 receptor expressed in CHO cells at 1 uM after 120 mins by liquid scintillation counting
- Type: cell-based
Give the value in % but do not write % after it.

Use the examples below as a reference point.
COc1ccc(NC(=O)Nc2nc3cnn(CCCc4ccccc4)c3c3nc(-c4ccco4)nn23)cc1 = 25
Cn1ncc2nc(N3CCOCC3)n3nc(-c4ccco4)nc3c21 = 1
Cn1ncc2nc(N3CCN(c4ccccc4)CC3)n3nc(-c4ccco4)nc3c21 = 1

Next up:
Query block: Return inhibition (reported value) for this molecule: CN1CCN(c2nc3cnn(C)c3c3nc(-c4ccco4)nn23)CC1
Result block: 1

====

As shown below, each of these compounds has a reported pKi value.
- Target Under Test: Adenosine receptor A1 (Homo sapiens)
- Sequence (P30542 whole entry): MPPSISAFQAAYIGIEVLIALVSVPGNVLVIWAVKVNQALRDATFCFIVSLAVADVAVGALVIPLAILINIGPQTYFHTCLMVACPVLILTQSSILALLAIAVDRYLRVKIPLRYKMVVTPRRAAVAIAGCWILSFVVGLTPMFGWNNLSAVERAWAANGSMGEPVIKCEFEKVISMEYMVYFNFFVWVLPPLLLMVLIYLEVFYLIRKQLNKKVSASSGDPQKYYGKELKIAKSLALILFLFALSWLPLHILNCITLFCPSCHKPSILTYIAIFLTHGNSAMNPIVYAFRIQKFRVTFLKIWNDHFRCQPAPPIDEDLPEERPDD
pKi (log units): -log10 of the concentration in mol/L.

Query block: Using the record for CCCn1cc2nc(NC(=O)Nc3ccc(OC)cc3)n3nc(-c4ccco4)nc3c2n1 , state its measured pKi.
Result block: 6.62

Query block: Return reported pKi. Input compound: CCCn1cc2nc(N)n3nc(-c4ccco4)nc3c2n1
Result block: 7.66

Query block: Supply recorded pKi for COc1ccc(NC(=O)Nc2nc3cn(CCCc4ccccc4)cc3c3nc(-c4ccco4)nn23)cc1 here.
Result block: 6.68

Query block: Name the recorded pKi of the compound listed here: COc1ccc(NC(=O)Nc2nc3cn(CCc4ccccc4)nc3c3nc(-c4ccco4)nn23)cc1
Result block: 6.12

Query block: Hello, please tell me recorded pKi for this one: COc1ccc(NC(=O)Nc2nc3cnn(CCc4ccccc4)c3c3nc(-c4ccco4)nn23)cc1
Result block: 6.28

====

- Target Under Test: Adenosine receptor A2B (Homo sapiens) (UniProt P29275)
- Sequence (P29275 whole entry, looked up): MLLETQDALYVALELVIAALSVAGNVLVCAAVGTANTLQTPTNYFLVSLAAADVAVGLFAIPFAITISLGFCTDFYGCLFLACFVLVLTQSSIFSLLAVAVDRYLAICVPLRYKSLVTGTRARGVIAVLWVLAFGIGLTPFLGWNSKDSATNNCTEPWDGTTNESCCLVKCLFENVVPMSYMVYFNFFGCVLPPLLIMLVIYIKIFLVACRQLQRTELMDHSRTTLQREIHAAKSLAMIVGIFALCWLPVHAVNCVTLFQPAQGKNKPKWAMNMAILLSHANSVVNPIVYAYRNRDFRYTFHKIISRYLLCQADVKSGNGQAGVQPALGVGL
- Run Parameters: CHO, at 1 µM
Measured inhibition values are reported for all entries that follow.
// note: answer is a bare numeric in %

Worked cases, answers included:
CN1CCN(c2nc3cnn(C)c3c3nc(-c4ccco4)nn23)CC1 = 2
Cn1ncc2nc(N3CCN(c4ccccc4)CC3)n3nc(-c4ccco4)nc3c21 = 5
COc1ccc(NC(=O)Nc2nc3cn(CCCc4ccccc4)cc3c3nc(-c4ccco4)nn23)cc1 = 12
COc1ccc(NC(=O)Nc2nc3cnn(CCCc4ccccc4)c3c3nc(-c4ccco4)nn23)cc1 = 32

Query block: Return value of inhibition for input COc1ccc(NC(=O)Nc2nc3cn(CCCc4ccccc4)nc3c3nc(-c4ccco4)nn23)cc1 , no commentary.
Result block: 31

Query block: Give inhibition for the following compound: Cn1cc2nc(NC(=O)Nc3ccncc3)n3nc(-c4ccco4)nc3c2c1
Result block: 8

Query block: Query inhibition for Cn1ncc2nc(N3CCOCC3)n3nc(-c4ccco4)nc3c21
Result block: 4
